# targetOrTestSystem: UniProt:P25779
# Sequence (P25779 123-467 limits assumed): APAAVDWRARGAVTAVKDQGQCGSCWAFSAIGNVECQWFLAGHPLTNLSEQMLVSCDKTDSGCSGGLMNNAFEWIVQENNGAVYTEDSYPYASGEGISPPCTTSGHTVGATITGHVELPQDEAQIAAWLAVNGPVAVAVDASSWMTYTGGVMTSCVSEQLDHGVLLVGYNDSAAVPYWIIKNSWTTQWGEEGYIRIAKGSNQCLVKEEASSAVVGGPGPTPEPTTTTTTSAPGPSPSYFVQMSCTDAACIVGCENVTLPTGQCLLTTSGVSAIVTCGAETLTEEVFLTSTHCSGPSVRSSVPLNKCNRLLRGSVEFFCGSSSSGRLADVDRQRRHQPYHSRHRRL
# methodDescription: Inhibition of epimastigotes of Trypanosoma cruzi cruzipain using Bz-Pro-Phe-Arg-pNA as substrate at 10 uM by spectrophotometric analysis
// inhibition lookup, one value per entry
Give the number; % is assumed, so skip it.

The cases that follow already have their inhibition on record.
moleculeSmiles	targetOrTestSystem	metric	measurementUnit	measurement
Cc1cccc2c1CC/C2=N\Nc1nc(-c2ccccc2)cs1	UniProt:P25779	inhibition	%	3
Cc1ccc2c(c1)/C(=N/Nc1nc(-c3ccccc3)cs1)CC2	UniProt:P25779	inhibition	%	3

Consider the molecule Cc1cccc2c1CC/C2=N\Nc1nc(-c2ccc(Cl)cc2)cs1 and give its measured inhibition.
3

What do you have for Cc1ccc(-c2csc(N/N=C3\CCc4ccccc43)n2)cc1 ?
8

Now consider Cc1ccc(-c2csc(N/N=C3\CCc4c(C)cccc43)n2)cc1 .
4

Same again, this time with COc1cccc2c1CC/C2=N\Nc1nc(-c2ccc(Cl)cc2)cs1
0

---

# targetOrTestSystem: Cruzipain (Trypanosoma cruzi)
# methodDescription: Inhibition of epimastigotes of Trypanosoma cruzi cruzipain using Bz-Pro-Phe-Arg-pNA as substrate at 10 uM by spectrophotometric analysis
metric: inhibition (%)
// units = %; emit number, no label

moleculeSmiles	measurementUnit	inhibition
Cc1ccc(-c2csc(N/N=C3\CCc4cc(C)ccc43)n2)cc1	%	0
COc1cc2c(cc1OC)/C(=N/Nc1nc(-c3ccc(C)cc3)cs1)CC2	%	0
CC(C)C[C@H](NC(=O)[C@H]1O[C@@H]1C(=O)O)C(=O)NCCCCN=C(N)N	%	62

Look up inhibition for this molecule: Cc1ccc(-c2csc(N/N=C3\CCc4ccc(C)cc43)n2)cc1
3

---

Recorded IC50 values for a group of compounds are listed next.
# Tested on: Trypanosoma cruzi
# methodDescription: Trypanocidal activity against epimastigotes of Trypanosoma cruzi Tulahuen 2 assessed as inhibition of parasite growth after 4 days by trypan blue staining
# Format: functional, organism-based
# studyConditions: Tulahuen 2, 96 h
Enter your answer as a number in µM; do not include the unit.

Guide cases for IC50, answers given:
moleculeSmiles	measurement
Cc1ccc(-c2csc(N/N=C3\CCc4cc(C)ccc43)n2)cc1	5.24
Cc1ccc2c(c1)/C(=N/Nc1nc(-c3ccc(Cl)cc3)cs1)CC2	8.59
COc1cc2c(cc1OC)/C(=N/Nc1nc(-c3ccccc3)cs1)CC2	10.1
COc1cc2c(cc1OC)/C(=N/Nc1nc(-c3ccc(Cl)cc3)cs1)CC2	7.17
Cc1ccc2c(c1)/C(=N/Nc1nc(-c3ccccc3)cs1)CC2	4.27

GET /values?readout=IC50&system=Trypanosoma cruzi&item= Cc1ccc2c(c1)CC/C2=N\Nc1nc(-c2ccccc2)cs1
4.69

// query: Cc1ccc(-c2csc(N/N=C3\CCc4ccc(C)cc43)n2)cc1
4.08

Input c1ccc(-c2csc(N/N=C3\CCc4ccccc43)n2)cc1
19

Follow-up item: Cc1cccc2c1CC/C2=N\Nc1nc(-c2ccc(Cl)cc2)cs1
4.53

---

Measured inhibition accompanies every entry in the list below.
# targetOrTestSystem: Cruzipain (Trypanosoma cruzi)
# methodDescription: Inhibition of epimastigotes of Trypanosoma cruzi cruzipain using Bz-Pro-Phe-Arg-pNA as substrate at 20 uM by spectrophotometric analysis
# do not omit the unit; it follows the number

moleculeSmiles	inhibition
Cc1cccc2c1CC/C2=N\Nc1nc(-c2ccc(Cl)cc2)cs1	0%
Cc1ccc(-c2csc(N/N=C3\CCc4cc(C)ccc43)n2)cc1	0%
Cc1cccc2c1CC/C2=N\Nc1nc(-c2ccccc2)cs1	0%

Form entry - test system: Cruzipain (Trypanosoma cruzi); read-out: inhibition; molecule: Cc1ccc(-c2csc(N/N=C3\CCc4ccccc43)n2)cc1
5%

Note, next up: COc1cccc2c1CC/C2=N\Nc1nc(-c2ccc(Cl)cc2)cs1
0%
